Below: a set of entries, each annotated with reported kon.
# target_of_assay: TNFα (UniProt P01375 77-233)
# Sequence (P01375 77-233 limits assumed): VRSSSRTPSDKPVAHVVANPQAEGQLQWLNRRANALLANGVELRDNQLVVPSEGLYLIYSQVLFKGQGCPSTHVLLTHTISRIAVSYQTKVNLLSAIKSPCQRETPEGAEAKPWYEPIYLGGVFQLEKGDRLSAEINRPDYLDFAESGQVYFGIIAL
# experiment_summary: SPR (Biacore), TNFα on CM5 chip, Fab injected; mean of two runs ± SD
The response must be a number in M⁻¹ s⁻¹ with no trailing unit.

# binder, val
data = [
    ("Anti-TNFα H1L1 (Fab, V domains shown, Fab format, purified by Ni-NTA chromatography; also called framework optimized anti-TNFα H1L1) VH: EVQLVESGGGLVQPGGSLKLSCAASGFIFSNHWMNWVRQASGKGLEWVGEIRSKSINSATHYAESVKGRFTISRDDSKSIVYLQMNSLKTEDTAVYYCSRNYYGSTYDYWGQGTLVTVSS VL: DILLTQSPDFQSVTPKEKVTITCRASQFVGSSIHWYQQKPDQSPKLLIKYASESMSGIPSRFSGSGSGTDFTLTINSLEAEDAATYYCQQSHSWPFTFGSGTKLEIK", 605000),
    ("Anti-TNFα H1.103L1.33 (Fab, V domains shown, Fab format; It has thirteen more mutations than anti-TNFα H1L1; also called anti-TNF H1.103L1.33) VH: EVQLVESGGGLVQPGGSLKLSCAASGFIFSNHWMNWVRQASGKGLEWVGEIRSKANNYATHYAASVKGRFTISRDDSKNTAYLQMNSLKTEDTAVYYCSRNYYGSTYDYWGQGTLVTVSS VL: EIVLTQSPDFQSVTPKEKVTITCRASQFIGSSLHWYQQKPDQSPKLLIKYASESFSGVPSRFSGSGSGTDFTLTINSLEAEDAATYYCQQSHSWPFTFGSGTKLEIK", 292000),
    ("Anti-TNFα H1.45L1.33 (Fab, V domains shown, Fab format) VH: EVQLVESGGGLVQPGGSLKLSCAASGFIFSNHWMNWVRQASGKGLEWVGEIRSKAINYATHYAESVKGRFTISRDDSKSIVYLQMNSLKTEDTAVYYCSRNYYGSTYDYWGQGTLVTVSS VL: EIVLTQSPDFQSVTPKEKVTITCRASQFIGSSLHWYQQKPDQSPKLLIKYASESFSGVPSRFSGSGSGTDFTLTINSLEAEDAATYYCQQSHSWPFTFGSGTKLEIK", 489000),
]

Now look at this one.
Enquiry: Recorded kon of Anti-TNFα H1.101L1.33 (Fab, V domains shown, Fab format) VH: EVQLVESGGGLVQPGGSLKLSCAASGFIFSNHWMNWVRQASGKGLEWVGEIRSKAINYATHYAESVKGRFTISRDDSKSTAYLQMNSLKTEDTAVYYCSRNYYGSTYDYWGQGTLVTVSS VL: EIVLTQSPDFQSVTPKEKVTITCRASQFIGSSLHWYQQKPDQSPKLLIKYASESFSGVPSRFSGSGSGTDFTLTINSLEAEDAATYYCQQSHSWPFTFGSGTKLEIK , please.
Return: 223000
